In this section we review reported IC50 values for a set of compounds.
- study.system: CRBN-DDB1 (Homo sapiens, UniProt Q96SW2)
- Sequence (Q96SW2 whole entry): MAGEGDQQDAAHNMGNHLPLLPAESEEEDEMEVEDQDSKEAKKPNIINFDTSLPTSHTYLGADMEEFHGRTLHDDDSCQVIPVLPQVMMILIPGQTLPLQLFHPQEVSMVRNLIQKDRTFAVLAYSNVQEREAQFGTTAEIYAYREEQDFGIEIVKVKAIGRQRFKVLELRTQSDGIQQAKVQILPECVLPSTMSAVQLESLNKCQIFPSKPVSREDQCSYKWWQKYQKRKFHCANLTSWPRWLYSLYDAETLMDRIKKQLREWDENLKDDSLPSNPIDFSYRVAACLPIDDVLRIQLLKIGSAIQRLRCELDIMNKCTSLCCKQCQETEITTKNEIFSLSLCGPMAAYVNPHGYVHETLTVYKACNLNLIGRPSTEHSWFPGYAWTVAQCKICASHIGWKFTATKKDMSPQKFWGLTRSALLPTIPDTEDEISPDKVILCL
- Sequence (Q16531 whole entry partner): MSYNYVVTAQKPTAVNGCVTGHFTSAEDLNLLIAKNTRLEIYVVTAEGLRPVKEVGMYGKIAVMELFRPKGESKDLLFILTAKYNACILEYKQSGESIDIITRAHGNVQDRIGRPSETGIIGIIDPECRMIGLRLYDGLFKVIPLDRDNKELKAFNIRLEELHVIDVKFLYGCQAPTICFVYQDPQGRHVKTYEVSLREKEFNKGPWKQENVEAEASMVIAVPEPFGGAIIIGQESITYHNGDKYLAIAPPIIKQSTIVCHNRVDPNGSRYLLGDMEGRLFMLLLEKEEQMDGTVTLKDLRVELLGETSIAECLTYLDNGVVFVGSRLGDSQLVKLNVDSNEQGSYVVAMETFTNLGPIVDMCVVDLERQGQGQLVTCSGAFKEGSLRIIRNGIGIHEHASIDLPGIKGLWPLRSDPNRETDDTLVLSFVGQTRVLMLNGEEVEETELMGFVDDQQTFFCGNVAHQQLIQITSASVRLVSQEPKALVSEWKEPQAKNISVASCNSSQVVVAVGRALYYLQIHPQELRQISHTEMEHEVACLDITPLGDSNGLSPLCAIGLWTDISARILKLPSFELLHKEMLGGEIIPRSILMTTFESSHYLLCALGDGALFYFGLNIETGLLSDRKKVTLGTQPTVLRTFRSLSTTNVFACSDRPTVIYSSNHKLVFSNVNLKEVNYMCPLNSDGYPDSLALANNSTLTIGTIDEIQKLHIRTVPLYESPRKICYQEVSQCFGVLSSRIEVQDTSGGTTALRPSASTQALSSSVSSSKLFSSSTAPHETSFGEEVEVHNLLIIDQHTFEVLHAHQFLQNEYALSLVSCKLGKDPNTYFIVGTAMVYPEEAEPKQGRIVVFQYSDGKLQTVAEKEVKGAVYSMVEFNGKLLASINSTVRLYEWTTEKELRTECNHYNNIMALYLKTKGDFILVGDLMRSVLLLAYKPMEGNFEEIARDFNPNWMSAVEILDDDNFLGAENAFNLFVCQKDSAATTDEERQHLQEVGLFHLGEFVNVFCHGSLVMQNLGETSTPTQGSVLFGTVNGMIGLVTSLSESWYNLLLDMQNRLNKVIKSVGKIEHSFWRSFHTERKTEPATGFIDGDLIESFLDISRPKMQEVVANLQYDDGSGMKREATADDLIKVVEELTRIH
- test.description: HTRF binding of compounds to CRBN
measured.property: IC50

>>> assay_value("CC(F)(F)c1ccc(F)c(NC(=O)OCc2ccc3c(c2)C(=O)N(C2CCC(=O)NC2=O)C3)c1 (stereo not shown)")
"< 0.1 µM"
>>> assay_value("Cc1cc(NC(=O)OCc2ccc3c(c2)C(=O)N(C2CCC(=O)NC2=O)C3)cc(Cl)c1C#N (stereo not shown)")
"0.1 to 1 µM"
>>> assay_value("C[C@@H]1CCCN1c1ccc(NC(=O)OCc2ccc3c(c2)C(=O)N(C2CCC(=O)NC2=O)C3)nc1 (stereo partly shown)")
"< 0.1 µM"
>>> assay_value("O=C1CCC(N2Cc3ccc(COC(=O)Nc4ccc(C(O)C(F)(F)F)nc4)cc3C2=O)C(=O)N1 (stereo not shown)")
"0.1 to 1 µM"
>>> assay_value("O=C1CCC(N2Cc3ccc(COC(=O)Nc4cccc(OC(F)(F)F)c4F)cc3C2=O)C(=O)N1 (stereo not shown)")
"0.1 to 1 µM"
>>> assay_value("O=C1CCC(N2Cc3ccc(COC(=O)Nc4cc(Cl)cc5c4OCC5)cc3C2=O)C(=O)N1 (stereo not shown)")
"< 0.1 µM"
>>> assay_value("CCOc1cc(NC(=O)OCc2ccc3c(c2)C(=O)N(C2CCC(=O)NC2=O)C3)c(F)cc1C (stereo not shown)")
"< 0.1 µM"

###

- study.system: GSPT1 (Homo sapiens, UniProt P15170+Q96SW2)
- Sequence (P15170 whole entry, one chain of several): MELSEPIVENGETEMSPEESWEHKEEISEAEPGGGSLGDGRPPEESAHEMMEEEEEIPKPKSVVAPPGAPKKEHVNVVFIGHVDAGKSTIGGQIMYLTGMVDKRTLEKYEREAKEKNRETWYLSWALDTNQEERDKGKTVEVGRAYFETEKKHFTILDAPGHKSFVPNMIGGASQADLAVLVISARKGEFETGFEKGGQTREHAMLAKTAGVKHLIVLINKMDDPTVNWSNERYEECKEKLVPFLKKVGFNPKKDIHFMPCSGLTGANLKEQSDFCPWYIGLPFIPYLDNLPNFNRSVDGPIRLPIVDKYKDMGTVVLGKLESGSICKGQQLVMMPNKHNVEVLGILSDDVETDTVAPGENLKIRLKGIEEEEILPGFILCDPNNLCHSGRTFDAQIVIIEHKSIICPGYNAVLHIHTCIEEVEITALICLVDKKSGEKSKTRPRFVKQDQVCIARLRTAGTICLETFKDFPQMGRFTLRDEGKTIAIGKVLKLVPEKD
- test.description: Immunofluorescence assay for GSPT1 degradation in CAL-51 cells (Example 10)
- Assay type: cell-based
- Parameters: host or cells: CAL-51
- condition.notes: 6 h, read-out: IF Class (GSPT1 degradation, DC50)
In this section we review reported DC50 values for a set of compounds.
measured.property: DC50

>>> assay_value("CC(C)(C)OC(=O)C12CC(NC(=O)OCc3ccc4c(c3)C(=O)N(C3CCC(=O)NC3=O)C4)(C1)C2 (stereo not shown)")
"30 to 300 nM"
>>> assay_value("O=C1CCC(N2Cc3ccc(COC(=O)Nc4cc(OC(F)F)c(F)cc4F)cc3C2=O)C(=O)N1 (stereo not shown)")
"> 300 nM"
>>> assay_value("O=C1CCC(N2Cc3ccc(COC(=O)N[C@H]4C[C@@H](c5ccccc5)C4)cc3C2=O)C(=O)N1 (stereo partly shown)")
"> 300 nM"
>>> assay_value("CC(C)(C)OC(=O)NC12CC(NC(=O)OCc3ccc4c(c3)C(=O)N(C3CCC(=O)NC3=O)C4)(C1)C2 (stereo not shown)")
"> 300 nM"
>>> assay_value("O=C1CCC(N2Cc3ccc(COC(=O)Nc4cc(F)cc5c4OCC5)cc3C2=O)C(=O)N1 (stereo not shown)")
"> 300 nM"
>>> assay_value("CC(C)(C)N1CC(NC(=O)OCc2ccc3c(c2)C(=O)N(C2CCC(=O)NC2=O)C3)C1 (stereo not shown)")
"> 300 nM"
>>> assay_value("O=C1CCC(N2Cc3ccc(COC(=O)N[C@H]4C[C@H](c5ccccc5)C4)cc3C2=O)C(=O)N1 (stereo partly shown)")
"30 to 300 nM"

###

- study.system: CRBN-DDB1 (Homo sapiens, UniProt Q96SW2)
- test.description: HTRF binding of compounds to CRBN
- condition.notes: read-out: HTRF Class (Cereblon binding, HTRF IC50)
pIC50: −log10 of the molar value.
In this section we review reported pIC50 values for a set of compounds.
measured.property: pIC50

>>> assay_value("O=C1CCC(N2Cc3ccc(COC(=O)Nc4ccc(C5CCC5)cc4F)cc3C2=O)C(=O)N1 (stereo not drawn)")
"6.00 to 7.00"
>>> assay_value("O=C1CCC(N2Cc3ccc(COC(=O)NC45CC(N6CCOCC6)(C4)C5)cc3C2=O)C(=O)N1 (stereo not drawn)")
"6.00 to 7.00"
>>> assay_value("CC(C)(C)OC(=O)C12CC(NC(=O)OCc3ccc4c(c3)C(=O)N(C3CCC(=O)NC3=O)C4)(C1)C2 (stereo not drawn)")
"6.00 to 7.00"
>>> assay_value("O=C1CCC(N2Cc3ccc(COC(=O)NC45CC(C4)C5)cc3C2=O)C(=O)N1 (stereo not drawn)")
"6.00 to 7.00"
>>> assay_value("O=C1CCC(N2Cc3ccc(COC(=O)NC4(c5ccccc5)CC4)cc3C2=O)C(=O)N1 (stereo not drawn)")
"6.00 to 7.00"
>>> assay_value("Cc1cc(F)c(NC(=O)OCc2ccc3c(c2)C(=O)N(C2CCC(=O)NC2=O)C3)c(F)c1Cl (stereo not drawn)")
"> 7.00"
>>> assay_value("O=C1CCC(N2Cc3ccc(COC(=O)Nc4ccc(F)c(OC(F)F)c4F)cc3C2=O)C(=O)N1 (stereo not drawn)")
"6.00 to 7.00"
>>> assay_value("Cc1cc(C)nc(NC(=O)OCc2ccc3c(c2)C(=O)N(C2CCC(=O)NC2=O)C3)c1 (stereo not drawn)")
"6.00 to 7.00"
>>> assay_value("Cc1cc(NC(=O)OCc2ccc3c(c2)C(=O)N(C2CCC(=O)NC2=O)C3)ccc1Cl (stereo not drawn)")
"6.00 to 7.00"
>>> assay_value("C[C@@H]1CCCN1c1cnc(NC(=O)OCc2ccc3c(c2)C(=O)N(C2CCC(=O)NC2=O)C3)c(F)c1 (stereo partly drawn)")
"> 7.00"
>>> assay_value("CC(C)(O)c1ccc(NC(=O)OCc2ccc3c(c2)C(=O)N(C2CCC(=O)NC2=O)C3)cn1 (stereo not drawn)")
"6.00 to 7.00"
>>> assay_value("CCc1ccc(F)c(NC(=O)OCc2ccc3c(c2)C(=O)N(C2CCC(=O)NC2=O)C3)c1 (stereo not drawn)")
"> 7.00"
>>> assay_value("Cc1cc(F)c(NC(=O)OCc2ccc3c(c2)C(=O)N(C2CCC(=O)NC2=O)C3)cc1OC(F)(F)F (stereo not drawn)")
"6.00 to 7.00"
>>> assay_value("CC(C)(O)c1ccc(NC(=O)OCc2ccc3c(c2)C(=O)N(C2CCC(=O)NC2=O)C3)cc1 (stereo not drawn)")
"6.00 to 7.00"
>>> assay_value("Cc1cc(F)c(NC(=O)OCc2ccc3c(c2)C(=O)N(C2CCC(=O)NC2=O)C3)cc1OC(C)C (stereo not drawn)")
"> 7.00"
